- PROTOCOL_NOTES: Plasma pharmacokinetics after IV or PO administration
- Format: in vivo, SD Rat
- TEST_CONTEXT: Sprague-Dawley, rat, plasma, po, 40 mg/kg, SD Rat, PO 40 mg/kg, 4 h; read-out: Plasma concentrations of Pirfenidone, Mean
MEASUREMENT_KIND: concentration at 4 h

- Cc1ccc(=O)n(-c2ccccc2)c1 [Pirfenidone, 5 methyl-1-phenyl-2-[H] pyridone]: 321 ng/mL

====

- PROTOCOL_NOTES: Plasma pharmacokinetics after IV or PO administration
- Type: in vivo, SD Rat
- TEST_CONTEXT: Sprague-Dawley, rat, plasma, iv, 40 mg/kg, SD Rat, IV 40 mg/kg; read-out: AUC0-t, Mean
MEASUREMENT_KIND: AUC0-t (ng·h/mL)

* Cc1ccc(=O)n(-c2ccccc2)c1 [Pirfenidone, 5 methyl-1-phenyl-2-[H] pyridone] | 23500

====

- PROTOCOL_NOTES: Plasma pharmacokinetics after IV or PO administration
- Type: in vivo, SD Rat
- TEST_CONTEXT: Sprague-Dawley, rat, plasma, iv, 40 mg/kg, SD Rat, IV 40 mg/kg, 0.25 h, individual rats 1-3; read-out: Plasma concentrations of Pirfenidone
MEASUREMENT_KIND: concentration at 0.25 h

• Cc1ccc(=O)n(-c2ccccc2)c1 [Pirfenidone, 5 methyl-1-phenyl-2-[H] pyridone] = 21400 ng/mL

====

- PROTOCOL_NOTES: Plasma pharmacokinetics after IV or PO administration
- Format: in vivo, SD Rat
- TEST_CONTEXT: Sprague-Dawley, rat, plasma, po, 40 mg/kg, SD Rat, PO 40 mg/kg, 0.25 h; read-out: Plasma concentrations of Pirfenidone, Mean
MEASUREMENT_KIND: concentration at 0.25 h (ng/mL)

- Cc1ccc(=O)n(-c2ccccc2)c1 [Pirfenidone, 5 methyl-1-phenyl-2-[H] pyridone]: 9000

====

- PROTOCOL_NOTES: Plasma pharmacokinetics after IV or PO administration
- Format: in vivo, SD Rat
- TEST_CONTEXT: Sprague-Dawley, serum; SD Rat, IV 40 mg/kg, individual rats 1-3; read-out: Tmax
MEASUREMENT_KIND: Tmax (min)

• Cc1ccc(=O)n(-c2ccccc2)c1 [Pirfenidone, 5 methyl-1-phenyl-2-[H] pyridone] = 4.98

====

- PROTOCOL_NOTES: Plasma pharmacokinetics after IV or PO administration
- Type: in vivo, SD Rat
- TEST_CONTEXT: Sprague-Dawley, rat, plasma, iv, 40 mg/kg, SD Rat, IV 40 mg/kg, 4 h; read-out: Plasma concentrations of Pirfenidone, Mean
MEASUREMENT_KIND: concentration at 4 h (ng/mL)

- Cc1ccc(=O)n(-c2ccccc2)c1 [Pirfenidone, 5 methyl-1-phenyl-2-[H] pyridone]: 4.7

====

- PROTOCOL_NOTES: Plasma pharmacokinetics after IV or PO administration
- Format: in vivo, SD Rat
- TEST_CONTEXT: Sprague-Dawley, rat, plasma, po, 40 mg/kg, SD Rat, PO 40 mg/kg, 0.25 h, individual rats 7-9; read-out: Plasma concentrations of Pirfenidone
- Protocol: Pirfenidone and Pegyonde-6 were administered at equimolar concentrations to rats IV or per os (PO) and serum concentrations measured at different time points to measure pharmacokinetic parameters. The drugs were solubilized in 5% Alcohol+20% PEG 300 in saline.
MEASUREMENT_KIND: concentration at 0.25 h (ng/mL)

• Cc1ccc(=O)n(-c2ccccc2)c1 [Pirfenidone, 5 methyl-1-phenyl-2-[H] pyridone] = 9130
